- System: HOP-92 NSCLC
- assaySummary: NCI-60 one-dose screen, 48 h (100 = growth as untreated, 0 = no growth, -100 = all killed)
- testContext: 10 µM unless noted
- Protocol: Growth inhibition of the HOP-92 human Non-Small Cell Lung tumor cell line is measured as a screen for anti-cancer activity. Cells are grown in 96 well plates and exposed to the test compound for 48 hours. Compounds are tested at a single concentration, which is 10^-5 M for most compounds. The reported endpoint is percent growth (GI% or GIPRCNT), where numbers from 0 - 100% represent growth inhibition, and numbers from -100% - 0 represent cell death. […]
Compounds without any hit were thinned out: in the full panel of roughly 83,000, 20% have a hit.
Quick reference for growth among some compounds
Provide only the numeric value, understood in %.

>>> print(df.to_string())
                                   compound  valuemeasured
0  Cc1cc(Cl)ccc1OC(C)C(=O)Nc1nnc(C2CC2)s1 (stereo not given)           81.3
1  O=C(CCCn1c(=O)c2sc3ccccc3c2n2nnc(-c3ccccc3)c12)NCCc1cnc[nH]1          -54.5
2  COc1cccc(NC(=O)c2sc3nc4c(cc3c2N)CCCC4)c1           43.6
3  O=C(O)c1cn(C2CC2)c2cc(N3CCN(S(=O)(=O)c4ccc(Cl)c(Cl)c4)CC3)c(F)cc2c1=O           12.2

Using known records, supply growth for O=C(CNC(=O)c1cccc2ccccc12)Nc1ccccc1Oc1ccccc1
-1.24

----------
Entries and their growth values follow.
- Test system: CCRF-CEM leukemia
- assaySummary: NCI-60 one-dose screen, 48 h (100 = growth as untreated, 0 = no growth, -100 = all killed)
- testContext: 10 µM unless noted
This is part of a sample that, as a whole, favours compounds with a hit. Of some 83,000 tested, about 20% had one in any assay.
The figure you give is taken to be in %; do not add the unit.

                                   compound      subjectoftest  valuemeasured
0  COc1cc(CNC(=O)CSc2nc3ccccc3c(=O)n2Cc2cc(OC)c(OC)c(OC)c2)cc(OC)c1OC  CCRF-CEM leukemia           96.2
1  C=C1C(=O)O[C@H]2[C@H]1CC/C(COC(=O)NCc1cc(OC)cc(OC)c1)=C\CC[C@@]1(C)O[C@@H]21  CCRF-CEM leukemia            2.4
2  COc1ccc(Cn2cc(COc3cc(/C=C/C(=O)c4cc(OC)c(OC)c(OC)c4)ccc3OC)nn2)cc1  CCRF-CEM leukemia           2.56
3  COc1cc(C2C=C(C)N=C3SC(C)=NN32)cc(OC)c1OC (centres undefined)  CCRF-CEM leukemia           91.8
4  COc1ccc(/C=C/C(=O)c2cc(OC)c(OC)c(OC)c2)cc1OCc1cn(Cc2ccc(F)cc2)nn1  CCRF-CEM leukemia          0.459

Give CCRF-CEM leukemia growth for the following compound: Cc1cc2c(C(C)C)c(O)c(O)c(C=NCCCCCCC(=O)O)c2c(O)c1-c1c(C)cc2c(C(C)C)c(O)c(O)c(C=NCCCCCCC(=O)O)c2c1O
18.1

Give the observed growth of CCCCNC(=O)NS(=O)(=O)c1ccc(N2N=C(c3ccc(C)cc3C)CC2c2ccc(OC)cc2)cc1 (centres undefined) for CCRF-CEM leukemia.
54.3

Tell me its growth on CCRF-CEM leukemia: CCC(=O)Oc1ccc2c(c1)CC[C@@H]1[C@@H]2CC[C@]2(C)C[C@H](OC(=O)CC)C[C@@H]12
74.6

Determine reported growth for CCn1cc(C(=O)O)c(=O)c2cc(F)c(N3CCN(S(=O)(=O)c4ccc(Cl)cc4Cl)CC3)cc21 ; test system: CCRF-CEM leukemia.
2.78

Give growth for this entry on CCRF-CEM leukemia: O=C(CNc1c(Cl)cccc1Cl)Nc1ccc(-c2nc3ccccc3s2)cc1
2.24

Given CCN(CC)CCCNc1nc(C)cc(Nc2ccc3nc(C)cc(N)c3c2)n1 , report its growth on CCRF-CEM leukemia.
99.4

// fetch growth for CC(C)C[C@H](NC(=O)Cn1ccc(NCc2ccccc2)cc1=O)B(O)O ; system: CCRF-CEM leukemia
2.78

Enter growth (test system CCRF-CEM leukemia) for COc1ccc(/C=C/C(=O)/C=C/c2cc3ccc(Cl)cc3[nH]c2=O)cc1
56.8

Report growth on CCRF-CEM leukemia for this entry: OC1CC2c3ccccc3C1c1ccccc12 (centres undefined)
104

Look up and report growth, with CCRF-CEM leukemia as system, for O=[N+]([O-])c1ccc(S(=O)(=O)N2CCN(c3ccnc4cc(Cl)ccc34)CC2)c([N+](=O)[O-])c1
14.8

# assay system CCRF-CEM leukemia: give growth of COc1ccc(/C=C(\C#N)c2ccc([N+](=O)[O-])cc2)c2ccccc12
83

Recall the reported growth of O=C(c1c[nH]c2ccccc12)C(Sc1nc2ccccc2c(=O)[nH]1)c1ccccc1 (centres undefined) when tested on CCRF-CEM leukemia.
99.8

Look up and report measured growth (CCRF-CEM leukemia) for the following compound: O=C(COc1ccccc1)N1N=C(c2ccc(Cl)cc2)CC1c1c[nH]c2ccccc12 (centres undefined)
11.3

Enter measured growth, system CCRF-CEM leukemia, for the compound shown: O=[N+]([O-])c1cccc(-c2cc(-c3cc(Br)ccc3O)[nH]n2)c1
8.04

Specify growth for O=S(=O)(NCCCNc1cc(-c2cn(-c3ccccc3)nc2-c2cccc(O)c2)ccn1)c1ccc(Cl)cc1 , system CCRF-CEM leukemia.
11.6

Please respond with reported growth (system CCRF-CEM leukemia) for Clc1cccc(Cl)c1Cn1c(-c2cncs2)nc2ccccc21 .
85

State measured growth of the compound c1ccc(CCn2nnc3c(Nc4ccc(N5CCOCC5)cc4)ncnc32)cc1 with CCRF-CEM leukemia.
71.6

----------
- System: SN12C renal
- assaySummary: NCI-60 one-dose screen, 48 h (100 = growth as untreated, 0 = no growth, -100 = all killed)
- testContext: 10 µM unless noted
Compounds without any hit were thinned out: in the full panel of roughly 83,000, 20% have a hit. Calls of active or inactive are those of the source. How the source made its calls: active means growth percent below 10; inactive means the rest.
observable: growth

In [3]: df
Out[3]:
                                   compound  observable     valuemeasured
0  Cc1cc(C(=O)CSc2nc3ccccc3c(=O)[nH]2)c(C)n1C      growth  95.4% (inactive)
1  COc1cc2c(cc1OC)C1(C)N(CC2)C(=O)OC1(C)C (stereo unspecified)      growth   101% (inactive)
2  COc1ccc(NC(=O)CSc2nc3ccccc3c(=O)n2Cc2cc(OC)c(OC)c(OC)c2)cc1      growth  79.6% (inactive)
3  CC(C)C[C@H](NC(=O)[C@@H](Cc1ccccc1)n1ccc(Nc2ccccc2)cc1=O)B(O)O      growth   -25.1% (active)
4  Nc1c(C(=O)c2ccc(F)cc2)sc2nc3c(cc12)CCCC3      growth  82.5% (inactive)

Okay, now this compound:
Specify growth for CC(=O)N1Cc2ccccc2C(C)Cc2cc(Cl)ccc21 (stereo unspecified) and stop.
104% (inactive)

----------
- System: A549/ATCC NSCLC
- assaySummary: NCI-60 one-dose screen, 48 h (100 = growth as untreated, 0 = no growth, -100 = all killed)
- testContext: 10 µM unless noted
Compounds without any hit were thinned out: in the full panel of roughly 83,000, 20% have a hit. Calls of active or inactive are those of the source. How the source made its calls: active means growth percent below 10; inactive means the rest.
# reported growth; entries follow

>>> print(df.to_string())
                                   compound     valuemeasured
0  CC1CCN(C(=O)CSc2nc3sc4c(c3c(=O)[nH]2)CCCC4)CC1   106% (inactive)
1  Cc1oc2nc[nH]c(=O)c2c1C(=O)/C=C/c1ccc(Cl)cc1  31.7% (inactive)
2  O=c1oc2cc(OS(=O)(=O)c3ccccc3)c(Cl)cc2c2c1CCCCCC2  88.2% (inactive)
3            Nc1cc2c(cc1N)-c1cc(N)c(N)cc1C2  97.9% (inactive)
4  COc1cc(C(=O)/C=C/c2cc(C(=O)c3cc(OC)c(OC)c(OC)c3)ccc2OC)ccc1N  18.5% (inactive)
5  CN(C)C1CCC(NC2=CC(=O)C=CC2=O)CC1 (stereo not given)   106% (inactive)

Read off the recorded growth for Cc1nc2sccn2c1-c1csc(Nc2ccccc2Cl)n1
34.4% (inactive)

Specify growth for CCN(CC)c1cc(/C=C/c2ccc(OC)c(OC)c2)nc2cc(F)c(F)cc12 and stop.
64.8% (inactive)

Output growth of Cc1ccccc1C(=O)c1ccccc1C(=O)O
103% (inactive)

Give the value of growth reported for the following: COc1cccc(-c2nc3sccn3c2-c2ccnc(NCCCNS(=O)(=O)c3ccccc3)n2)c1
51.8% (inactive)

Fill in reported growth for this entry: CC(C)C[C@H](NC(=O)[C@@H](Cc1ccccc1)n1ccc(Nc2ccccc2)cc1=O)B(O)O
17% (inactive)

Note growth for the compound shown: O=C(CNc1c(Cl)cccc1Cl)Nc1ccc(-c2nc3ccccc3s2)cc1
85.7% (inactive)

Values from PubChem BioAssay (NCI)
